Test Description: HILIC, Waters ACQUITY UPLC BEH Amide, 100 × 2.1 mm, 1.7 µm; A: water + 0.125% formic acid + 10 mM ammonium formate; B: 5% water + 95% acetonitrile + 0.125% formic acid + 10 mM ammonium formate; gradient (min/%B) 0/100 2/100 7.7/70 9.5/40 10.25/30 12.75/100 17/100
Measurement Context: stereoisomer not certain
Documented LC retention time across a set of molecules
Please respond with the number in min and leave the unit unwritten.

These solved cases illustrate the format of a correct answer.
stdin: Can you share its LC retention time? I mean this molecule: CC(C)c1ccc2c(c1)c(SC(C)(C)C)c(CC(C)(C)C(=O)O)n2Cc1ccc(Cl)cc1
stdout: 0.96

stdin: Can you share its LC retention time? I mean this molecule: Cc1ncc2n1-c1ccc(Cl)cc1C(c1ccccc1F)=NC2
stdout: 1.29

stdin: Can you share its LC retention time? I mean this molecule: NC(CC(=O)O)C(=O)NC(CCC(=O)O)C(=O)O (centres undefined)
stdout: 9.47

stdin: Can you share its LC retention time? I mean this molecule: CN1CCC(=C2c3ccccc3CCc3sccc32)CC1
stdout: 2.33

stdin: Can you share its LC retention time? I mean this molecule: NC(=O)c1[nH]cnc1N [5-Aminoimidazole-4-carboxamide]
stdout: 4.18

stdin: Can you share its LC retention time? I mean this molecule: Cn1cc(C2OC(CO)C(O)C2O)c(=O)[nH]c1=O (centres undefined)
stdout: 4.99

stdin: Can you share its LC retention time? I mean this molecule: COC1C(O)C(CO)OC1n1cnc2c(=O)[nH]c(N)nc21 (centres undefined)
stdout: 5.72

stdin: Can you share its LC retention time? I mean this molecule: Nc1ccccc1S(=O)(=O)O
stdout: 2.52

Turning now to a further record.
stdin: Can you share its LC retention time? I mean this molecule: CC(C)CC(NC(=O)OCc1ccccc1)C(=O)O (centres undefined)
stdout: 1.28

----------
Test Description: HILIC, Waters ACQUITY UPLC BEH Amide, 100 × 2.1 mm, 1.7 µm; A: water + 0.125% formic acid + 10 mM ammonium formate; B: 5% water + 95% acetonitrile + 0.125% formic acid + 10 mM ammonium formate; gradient (min/%B) 0/100 2/100 7.7/70 9.5/40 10.25/30 12.75/100 17/100
Measurement Context: stereoisomer not certain
# LC retention time binned as group A: < 2 min; group B: ≥ 2 min and < 6 min; group C: ≥ 6 min

Below, 4 molecules whose answers are already recorded.
stdin: Place this molecule in its band: O=Cc1ccc(O)cc1 [4-Hydroxybenzaldehyde]
stdout: group A

stdin: Place this molecule in its band: CCCCCCc1ccc(O)cc1O
stdout: group A

stdin: Place this molecule in its band: CNC(C(=O)O)C(C)O (stereo not drawn)
stdout: group C

stdin: Place this molecule in its band: CC12CCC(=O)C=C1CCC1C2C(O)CC2(C)C(C(=O)CO)CCC12 (stereo not drawn)
stdout: group A

New cases:
stdin: Place this molecule in its band: O=C(O)c1cccnc1C(=O)O
stdout: group B

stdin: Place this molecule in its band: COc1ccc(C(=O)NCc2ccc(OCCN(C)C)cc2)cc1OC [Itopride]
stdout: group B

stdin: Place this molecule in its band: O=C1CN2Cc3c(ccc(Cl)c3Cl)N=C2N1 [Anagrelide]
stdout: group A

stdin: Place this molecule in its band: CCC1(O)CC2CN(CCc3c([nH]c4ccccc34)C(C(=O)OC)(c3cc4c(cc3OC)N(C=O)C3C(O)(C(=O)OC)C(OC(C)=O)C5(CC)C=CCN6CCC43C65)C2)C1 (stereo not drawn)
stdout: group B

stdin: Place this molecule in its band: O=C1CN=C(c2ccccc2)c2cc([N+](=O)[O-])ccc2N1
stdout: group A

stdin: Place this molecule in its band: CC1OC(OC2C(CO)OC(OC3C(CO)OC(O)C(O)C3O)C(O)C2O)C(O)C(O)C1NC1C=C(CO)C(O)C(O)C1O (stereo not drawn)
stdout: group C

stdin: Place this molecule in its band: COc1ccc(CCN)cc1OC
stdout: group B
